Measured target: AURKB (human)
Experimental details: radiometric filter-binding kinase assay
Cond: compound 1.0 µM
Quantity name: residual activity (%)
Write the value in % as a bare number.

The examples below pair each entry with its known result.
CC1=C(CO)C(=O)O[C@@H]([C@@H](C)[C@H]2CC[C@H]3[C@@H]4C[C@H]5O[C@]56[C@@H](O)C=CC(=O)[C@]6(C)C4CC[C@]23C)C1 (some centres undefined): 86
Cc1ccc(Sc2cnc(Nc3cccc(Br)n3)s2)cc1C(=O)N1CCN(C(=O)CN)CC1: 42
COc1cc(C(=O)N2CCOCC2)c(F)cc1Nc1ncc(C(F)(F)F)c(NC2CC2)n1: 68
O=C(N[C@@H](COc1ccc2[nH]c(=O)[nH]c2c1)c1ccccc1)c1cccn(Cc2ccc(F)c(F)c2)c1=O: 104
O=C1NC(=S)N[C@@H]1Cc1c[nH]c2ccccc12: 100
CC(C)(C#N)c1ccc(N2C(=O)OCc3cnc4ccc(-c5cnc6ccccc6c5)cc4c32)cc1: 93
CNc1nc(-c2ccc3c(N)n[nH]c3c2)cc(N2C[C@@H](C(=O)NC3CCCCC3)CC[C@H]2C)n1: 72
O=C(NCCCNc1nc(Nc2cccc(CN3CCOCC3)c2)ncc1C1CC1)C1CCC1: 54
Cc1cccc(-c2nn(C(=S)Nc3ccccc3)cc2-c2ccnc3ccccc23)n1: 102
COc1ccc(N(C(=O)Nc2c(C)cccc2C)c2cc(Nc3ccc(N4CCN(C)CC4)cc3)ncn2)c(OC)c1: 91

Query: Supply residual activity value. Item: Cc1nc(-c2ccc(OCC(C)C)c(C#N)c2)sc1C(=O)O
Result: 95

Query: Give the measured residual activity for O=C(NOCC(O)CO)c1ccc(F)c(F)c1Nc1ccc(I)cc1Cl (centres undefined)
Result: 99

Query: Note residual activity for the molecule shown: CCCCCc1ccc(/C=C/[C@H](O)[C@@H](CO)NC)cc1
Result: 102

Query: Tell us which residual activity value is on record for CCCC(CCC)C(=O)O
Result: 90

Query: Report residual activity for Cc1ccc(=O)n(-c2ccccc2)c1
Result: 93

Query: # return recorded residual activity for entry FC(F)(F)c1ccc(-c2ccc(Oc3cncc4sc(-c5nn[nH]n5)cc34)cc2)cc1
Result: 81

Query: Return value of residual activity for input O=C(O)c1cc(N=Nc2ccc(S(=O)(=O)Nc3ccccn3)cc2)ccc1O , no commentary.
Result: 104

Query: Given COc1cc(O)c2c(c1)/C=C/C[C@H](O)[C@H](O)C(=O)/C=C\C[C@H](C)OC2=O , respond with its residual activity.
Result: 74

Query: Supply recorded residual activity for O=C(NOC[C@H](O)CO)c1ccc(F)c(F)c1Nc1ccc(I)cc1Cl here.
Result: 87

---

Measured residual activity, listed per entry for reference.
Measured target: STK3 (human) (UniProt Q13188)
Sequence (Q13188 whole entry, looked up): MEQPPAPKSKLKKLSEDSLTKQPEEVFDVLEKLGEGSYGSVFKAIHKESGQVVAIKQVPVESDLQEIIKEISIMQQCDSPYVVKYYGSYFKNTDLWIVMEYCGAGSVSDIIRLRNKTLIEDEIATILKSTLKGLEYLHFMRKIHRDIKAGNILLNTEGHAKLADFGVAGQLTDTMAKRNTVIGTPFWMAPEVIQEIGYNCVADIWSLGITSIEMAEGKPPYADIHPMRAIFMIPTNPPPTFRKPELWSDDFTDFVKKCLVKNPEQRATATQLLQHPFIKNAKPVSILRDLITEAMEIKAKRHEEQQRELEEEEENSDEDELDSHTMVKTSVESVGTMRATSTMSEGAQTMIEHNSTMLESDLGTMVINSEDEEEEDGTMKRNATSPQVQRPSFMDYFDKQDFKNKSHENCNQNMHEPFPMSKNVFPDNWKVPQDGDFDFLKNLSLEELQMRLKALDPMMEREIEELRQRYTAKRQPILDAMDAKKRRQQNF
Experimental details: radiometric filter-binding kinase assay
Cond: compound 1.0 µM
Report field: quantity (unit follows the number).

Cn1c(=O)c2c(ncn2C)n(C)c1=O: 89%

Query: Tell me measured residual activity for O=C1NC(=S)N[C@@H]1Cc1c[nH]c2ccccc12 please.
Result: 99%

Query: Specify residual activity for O=C(NOC[C@H](O)CO)c1ccc(F)c(F)c1Nc1ccc(I)cc1Cl and stop.
Result: 83%

Query: Please give the documented residual activity of O=C(NCCCNc1nc(Nc2cccc(CN3CCOCC3)c2)ncc1C1CC1)C1CCC1
Result: 129%

Query: Report measured residual activity; entry is CCc1cncnc1N1CCN(Cc2nc3cc(C(F)(F)F)ccc3[nH]2)CC1
Result: 85%

Query: Quickly give me recorded residual activity for O=C(O)c1ccc(-c2c[nH]c3ncc(-c4ccccc4)cc23)cc1C1CCCC1
Result: 22%

Query: Report residual activity, nothing else, for this compound: NCC(=O)Nc1ccc(-n2nc(C(F)(F)F)cc2-c2ccc3c(ccc4ccccc43)c2)cc1
Result: 106%

Query: Answer with the recorded residual activity of COc1ccc(N(C(=O)Nc2c(C)cccc2C)c2cc(Nc3ccc(N4CCN(C)CC4)cc3)ncn2)c(OC)c1 only.
Result: 118%
